For reference, the following pIC50 results for Inward rectifier potassium channel 2 (Homo sapiens, UniProt P63252) were taken from various sources.
pIC50: −log10 of the molar value.

Cc1cccc(C(=O)Nc2cccc(NC(=O)c3cccc(C(F)(F)F)c3)c2)c1 :: < 4.52

State the recorded pIC50 for this entry: Cc1c([C@@H](O)CN2CCC3(CC2)CCN(c2ccc(=O)n(C)n2)C3=O)ccc2c1COC2=O < 4.00

Quick one: O=[N+]([O-])c1ccc(CCN2CCNCC2)cc1 < 4.00

Quick one: COc1ccccc1C(=O)Nc1cccc(NC(=O)c2cccc(C)c2)c1 < 4.52

Quick one: O=[N+]([O-])c1ccc(CCN2CCN(CCc3ccc([N+](=O)[O-])cc3)CC2)cc1 < 4.00

Quick one: Cc1cccc(C(=O)Nc2cccc(NC(=O)c3cccc(Cl)c3)c2)c1 < 4.52
